Where these numbers come from: patent US20230339891A1

Each entry below carries its measured IC50, system: GST-MERTK 578-872 (Homo sapiens (Human)).
measurement_type: IC50

CC(C)n1cc(C(=O)Nc2ccc(Oc3ccnc(Nc4ccc(S(=O)(=O)N(C)C)cn4)c3)c(F)c2)c(=O)n(C2CCCCC2)c1=O
487 nM
CC(C)n1cc(C(=O)Nc2ccc(Oc3ccnc(Nc4ccc(S(=O)(=O)N(C)C)cn4)c3)c(F)c2)c(=O)n(-c2ccc(C(F)(F)F)cc2)c1=O
127 nM
CC(C)n1cc(C(=O)Nc2ccc(Oc3ccnc(Nc4ccc(S(=O)(=O)N(C)C)cn4)c3)c(F)c2)c(=O)n(-c2ccc(F)cc2)c1=O
12 nM
CC(C)n1cc(C(=O)Nc2ccc(Oc3ccnc(Nc4ccn(C(F)F)n4)c3)c(F)c2)c(=O)n(-c2ccc(F)cc2)c1=O
4.3 nM
COc1cccc(-n2c(=O)c(C(=O)Nc3ccc(Oc4ccnc(Nc5ccc(S(=O)(=O)N(C)C)cn5)c4)c(F)c3)cn(C(C)C)c2=O)c1
40 nM
CC(C)n1cc(C(=O)Nc2ccc(Oc3ccnc(Nc4ccc(C#N)c(N5CCC(O)(C(F)(F)F)CC5)n4)c3)c(F)c2)c(=O)n(-c2ccc(F)cc2)c1=O
6 nM
CC(C)n1cc(C(=O)Nc2ccc(Oc3ccnc(Nc4ccnc(N5CCCC5)n4)c3)c(F)c2)c(=O)n(Cc2ccccc2)c1=O
8.2 nM
Cc1ccc(Nc2cc(Oc3ccc(NC(=O)c4cn(C(C)C)c(=O)n(-c5ccc(F)cc5)c4=O)cc3F)ccn2)nc1Cl
82 nM
CC(C)n1cc(C(=O)Nc2ccc(Oc3ccnc(Nc4ccc(S(=O)(=O)N(C)C)cn4)c3)c(F)c2)c(=O)n(-c2ccc(F)cn2)c1=O
15 nM
CN(C)S(=O)(=O)c1ccc(Nc2cc(Oc3ccc(NC(=O)c4cn(C)c(=O)n(-c5ccc(F)cc5)c4=O)cc3F)ccn2)nc1
71 nM
CC(C)n1cc(C(=O)Nc2ccc(Oc3ccnc(Nc4ccc(NS(C)(=O)=O)cn4)c3)c(F)c2)c(=O)n(-c2ccc(F)cc2)c1=O
6.7 nM
CC(C)n1cc(C(=O)Nc2ccc(Oc3ccnc(Nc4ccnc(N5CCCC5)n4)c3)c(F)c2)c(=O)n(C2CCCCC2)c1=O
70 nM

* * *

Each entry below carries its measured IC50, system: GST-MERTK 578-872 (Homo sapiens (Human), UniProt Q12866).
Sequence (Q12866 578-872): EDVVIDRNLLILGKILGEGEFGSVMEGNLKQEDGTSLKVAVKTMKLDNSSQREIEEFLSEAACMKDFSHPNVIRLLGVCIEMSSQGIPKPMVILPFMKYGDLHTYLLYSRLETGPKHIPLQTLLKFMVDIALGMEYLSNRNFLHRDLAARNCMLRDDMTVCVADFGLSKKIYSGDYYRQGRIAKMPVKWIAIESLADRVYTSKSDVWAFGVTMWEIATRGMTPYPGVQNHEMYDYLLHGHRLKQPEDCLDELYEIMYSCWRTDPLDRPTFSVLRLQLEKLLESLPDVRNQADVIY
measurement_type: IC50 (µM)

CC(C)NS(=O)(=O)c1ccc(Nc2cc(Oc3ccc(NC(=O)c4cn(C(C)C)c(=O)n(-c5ccc(F)cc5)c4=O)cc3F)ccn2)nc1
0.0098
CC(C)n1cc(C(=O)Nc2ccc(Oc3ccnc(Nc4ccc(C#N)c(N5CCC(O)(C(F)(F)F)CC5)n4)c3)c(F)c2)c(=O)n(Cc2ccccc2)c1=O
0.012
CN(C)S(=O)(=O)c1ccc(Nc2cc(Oc3ccc(NC(=O)c4cn([C@H]5CCOC5)c(=O)n(-c5ccc(F)cc5)c4=O)cc3F)ccn2)nc1
0.0079
CN(C)S(=O)(=O)c1ccc(Nc2cc(Oc3ccc(NC(=O)c4cn([C@@H]5CCOC5)c(=O)n(-c5ccc(F)cc5)c4=O)cc3F)ccn2)nc1
0.012
